# METHOD SUMMARY: p53 small molecule agonists, cell-based qHTS assay with rat liver microsomes: qHTS cell viability counter screen (AID 1963580); note: nearly all actives have a fitted effect of over 45% in size
# CONDITION INFO: p53RE-bla HCT-116 + rat microsomes, ATP viability, 16 h; series mostly up to 66 µM
Inconclusive results are not listed. Activity calls are given as the source filed them. Calls come from the whole dose curve.
Classes to choose from: y = active, n = inactive

Here are 2 molecules together with their reported answers.
1. COP(=S)(OC)Oc1ccc([N+](=O)[O-])cc1Cl = n
2. c1cc(OCC2CO2)ccc1Cc1ccc(OCC2CO2)cc1 (stereo not drawn) = n

Moving on to the next molecule.
Short answer needed: outcome of this test for CCCCN(CCCC)C(=S)[S-].CCCCN(CCCC)C(=S)[S-].[Zn+2] ?
y

The reported numbers originate from PubChem BioAssay (Tox21).
